B1: CCNC (parent)
chain: QSSHYLQWILDKQDLLKERQKDLK

variants of: B1; assay: protein stability index of a GFP-peptide fusion (GPS, HEK-293T) (PSI 1-6); higher = more stable; settings: c terminus: a fixed tail appended;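 also: lentivirally expressed fusions sorted by FACS into six bins by GFP to DsRed ratio, PSI derived from sequencing read proportions per bin multiplied by bin number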
met means recorded protein stability index is 3 or above; not met means it is below 3.

The examples below pair each entry with its known result.
>  <biosequence>
QSSHYLQWILDKQDLLKERQKQLK [D22Q]

>  <label class>
not met

$$$$
>  <biosequence>
QSSHYLQWILDKQDLLKENQKDLK [R19N]

>  <label class>
met

$$$$
>  <biosequence>
QSSHYLQWILDKFDLLKERQKDLK [Q13F]

>  <label class>
not met

$$$$
>  <biosequence>
QMSHYLQWILDKQDLLKERQKDLK [S2M]

>  <label class>
not met

$$$$
>  <biosequence>
QSSHYLQWILDKQDLLKERQKPLK [D22P]

>  <label class>
not met

$$$$

Problem: # bool: protein stability index of PSSHYLQWILDKQDLLKERQKDLK [Q1P] >= 3
Result: met

Problem: # bool: protein stability index of QSSHYLQWILDKQDSLKERQKDLK [L15S] >= 3
Result: met

Problem: # bool: protein stability index of QSSHYLQWILDKQDLLKERQLDLK [K21L] >= 3
Result: not met

Problem: # bool: protein stability index of QSSHYTQWILDKQDLLKERQKDLK [L6T] >= 3
Result: met

Problem: # bool: protein stability index of SSSHYLQWILDKQDLLKERQKDLK [Q1S] >= 3
Result: met

Problem: # bool: protein stability index of QSSHYLSWILDKQDLLKERQKDLK [Q7S] >= 3
Result: not met

Problem: # bool: protein stability index of QSSHYLQYILDKQDLLKERQKDLK [W8Y] >= 3
Result: met

Problem: # bool: protein stability index of QSSHYLQWILDKQDLLKERQKDQK [L23Q] >= 3
Result: met

Problem: # bool: protein stability index of QSSHYLQWILDKQDLNKERQKDLK [L16N] >= 3
Result: met
